Entries annotated with measured pKi
testTarget: human recombinant 5-HT2B receptor (Homo sapiens, UniProt P41595)
Sequence (P41595 whole entry): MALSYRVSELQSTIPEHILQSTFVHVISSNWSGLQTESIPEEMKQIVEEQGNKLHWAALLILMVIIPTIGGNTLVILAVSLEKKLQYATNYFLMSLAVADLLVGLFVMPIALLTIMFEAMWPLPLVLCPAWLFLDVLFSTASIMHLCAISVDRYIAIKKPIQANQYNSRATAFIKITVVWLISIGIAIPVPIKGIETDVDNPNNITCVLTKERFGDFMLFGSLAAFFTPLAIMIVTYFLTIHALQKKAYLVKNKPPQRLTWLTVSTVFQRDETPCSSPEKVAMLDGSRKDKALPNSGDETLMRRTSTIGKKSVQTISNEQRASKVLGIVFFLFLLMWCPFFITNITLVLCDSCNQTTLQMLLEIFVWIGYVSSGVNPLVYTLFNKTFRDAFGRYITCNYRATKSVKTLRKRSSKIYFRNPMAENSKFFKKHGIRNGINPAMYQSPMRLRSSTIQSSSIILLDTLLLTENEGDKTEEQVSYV
protocolSummary: Affinity for 5-HT2B receptor binding sites (competitive radioligand binding, [3H]mesulergine)
testConditions: membranes of CHO with h5-HT2B, * = tested as hydrochloride salt
pKi: −log10 of the molar value.
measurementKind: pKi

C[C@@H]1CCC[C@H](C)N1c1nc2c(c(-c3ccc(F)c(F)c3)n1)CCNCC2 [Example 83] = 7.92
Cc1ccc(-c2nc(N3CCC(F)CC3)nc3c2CCNCC3)cc1Cl [Example 76] = 7.80
FC1CCN(c2nc3c(c(-c4ccc(Cl)cc4)n2)CCNCC3)CC1 [Example 68] = 8.22
Cc1ccc(-c2nc(N3CCCC3C)nc3c2CCNCC3)cc1Cl (centres unmarked) [Example 77] = 8.05
Cc1ccc(-c2nc(N3[C@H](C)CCC[C@@H]3C)nc3c2CCNCC3)cn1 [Example 86] = 8.05
